Would you mind telling me the reported IC50 of each entry?
# system: recombinant human FLAP protein (Homo sapiens)
# Sequence (P20292 1-161): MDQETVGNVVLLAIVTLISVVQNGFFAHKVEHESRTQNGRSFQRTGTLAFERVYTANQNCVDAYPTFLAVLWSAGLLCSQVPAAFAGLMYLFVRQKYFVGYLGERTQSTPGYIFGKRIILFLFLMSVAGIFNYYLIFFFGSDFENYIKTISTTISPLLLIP
# methodSummary: FLAP binding assay (Scintillation Proximity Assay, displacement of [125I]L-691,831)
# testConditions: recombinant human FLAP membranes, [125I]L-691,831 probe; read-out: FLAP SPA IC50
Note: a bare number is incomplete; add the unit.

Query for recombinant human FLAP protein (Homo sapiens): what IC50 does the record show for Nc1ncc(-c2ccc(C3(c4noc(-c5ccc(Cl)c(Cl)c5)n4)CCC3)cc2)cn1 ?
13 nM

Query for recombinant human FLAP protein (Homo sapiens): what IC50 does the record show for Cc1cc(-c2nc(C3(c4ccc(-c5cnc(N)nc5)cc4)CCC3)no2)on1 ?
4.1 nM

Query for recombinant human FLAP protein (Homo sapiens): what IC50 does the record show for Nc1ncc(-c2ccc(C3(c4noc(-c5cccc(Cl)c5)n4)CCC3)cc2)cn1 ?
7.9 nM

Query for recombinant human FLAP protein (Homo sapiens): what IC50 does the record show for CN(C)C(=O)Cn1cc(-c2nc(C3(c4ccc(-c5cnc(N)cn5)cc4)CCC3)no2)cn1 ?
10 nM

Query for recombinant human FLAP protein (Homo sapiens): what IC50 does the record show for N#CC1CCN(c2nc(C3(c4ccc(-c5cnc(N)nc5)cc4)CCC3)no2)CC1 ?
19 nM

Query for recombinant human FLAP protein (Homo sapiens): what IC50 does the record show for CS(=O)(=O)C1CCN(c2cnc(-c3nc(C4(c5ccc(-c6cnc(N)nc6)cc5)CCC4)no3)cn2)C1 (centres unmarked) ?
1.9 nM

Query for recombinant human FLAP protein (Homo sapiens): what IC50 does the record show for Cc1ccc(-c2nc(C3(c4ccc(-c5cnc(N)nc5)cc4)CCCC3)no2)cn1 ?
2.8 nM

Query for recombinant human FLAP protein (Homo sapiens): what IC50 does the record show for Cn1cc(-c2nc(C3(c4ccc(-c5cnc6[nH]ccc6n5)cc4)CCC3)no2)cn1 ?
2.4 nM

----------
Would you mind telling me the reported IC50 of each entry?
# system: recombinant human FLAP protein (Homo sapiens)
# methodSummary: FLAP binding assay (Scintillation Proximity Assay, displacement of [125I]L-691,831)
# testConditions: recombinant human FLAP membranes, [125I]L-691,831 probe; read-out: FLAP SPA IC50
Number only, in nM; omit the unit.

Query for recombinant human FLAP protein (Homo sapiens): what IC50 does the record show for Nc1ncc(-c2ccc(C3(c4noc(-c5cccn(CCO)c5=O)n4)CCC3)cc2)cn1 [Example 67] ?
12

Query for recombinant human FLAP protein (Homo sapiens): what IC50 does the record show for CN(C)C(=O)C(C)(C)Cn1cc(-c2nc(C3(c4ccc(-c5cnc(N)nc5)cc4)CCC3)no2)cn1 [Example 129] ?
3.9

Query for recombinant human FLAP protein (Homo sapiens): what IC50 does the record show for COC(=O)C(C)(C)Nc1cnc(-c2nc(C3(c4ccc(-c5cnc(N)nc5)cc4)CCC3)no2)cn1 [Example 90] ?
3.4

Query for recombinant human FLAP protein (Homo sapiens): what IC50 does the record show for CC(O)Cn1cc(-c2nc(C3(c4ccc(-c5cnc(N)nc5)cc4)CCC3)no2)cn1 (centres unmarked) [Example 83] ?
4

Query for recombinant human FLAP protein (Homo sapiens): what IC50 does the record show for CCNc1nc(C2(c3ccc(-c4cnc(N)nc4)cc3)CCC2)no1 [Example 24] ?
11

Query for recombinant human FLAP protein (Homo sapiens): what IC50 does the record show for Nc1ncc(-c2ccc(C3(c4noc(-c5cnc(NCCO)cn5)n4)CCC3)cc2)cn1 [Example 68] ?
1.1

Query for recombinant human FLAP protein (Homo sapiens): what IC50 does the record show for Cn1cc(-c2nc(C3(c4ccc(-c5ccc(C6CC6)nc5)cc4)CCC3)no2)cn1 [Example 248] ?
730

Query for recombinant human FLAP protein (Homo sapiens): what IC50 does the record show for COC1CCN(C(=O)Cn2cc(-c3nc(C4(c5ccc(-c6cnc(N)nc6)cc5)CCC4)no3)cn2)CC1 [Example 234] ?
3.5

----------
# system: recombinant human FLAP protein (Homo sapiens, UniProt P20292)
# methodSummary: FLAP binding assay (Scintillation Proximity Assay, displacement of [125I]L-691,831)
# testConditions: recombinant human FLAP membranes, [125I]L-691,831 probe; read-out: FLAP SPA IC50
Would you mind telling me the reported pIC50 of each entry?
Keep it numeric: pIC50 is minus log10 of the concentration in mol/L.

Data request, read-out pIC50, for Nc1ncc(-c2ccc(C3(c4noc(-c5ccc(F)cc5)n4)CCC3)cc2)cn1 [Example 51]
8.15

Data request, read-out pIC50, for NCCn1cc(-c2nc(C3(c4ccc(-c5cnc(N)nc5)cc4)CCC3)no2)cn1 [Example 227]
8.59

Data request, read-out pIC50, for Nc1ncc(-c2ccc(C3(c4noc(-c5cnn(CC(=O)NCC(F)(F)F)c5)n4)CCC3)cc2)cn1 [Example 140]
8.36

Data request, read-out pIC50, for NC(=O)c1nc(C2(c3ccc(-c4cnc(N)nc4)cc3)CCC2)no1 [Example 177]
7.01

Data request, read-out pIC50, for CC(C)Nc1cnc(-c2nc(C3(c4ccc(-c5cnc(N)nc5)cc4)CCC3)no2)cn1 [Example 197]
8.82

Data request, read-out pIC50, for Nc1ncc(-c2ccc(C3(c4noc(-c5cnc(Cl)cn5)n4)CCC3)cc2)cn1 [Example 187]
8.08

Data request, read-out pIC50, for Nc1ncc(-c2ccc(C3(c4noc(-c5ccccc5)n4)CCC3)cc2)cn1 [Example 144]
8.85

Data request, read-out pIC50, for Nc1ncc(-c2ccc(C3(c4noc(-c5cnn(CCN6CCCC6=O)c5)n4)CCC3)cc2)cn1 [Example 216]
8.89

Data request, read-out pIC50, for COc1ccncc1-c1nc(C2(c3ccc(-c4cnc(N)nc4)cc3)CCC2)no1 [Example 168]
8.26

Data request, read-out pIC50, for Nc1ncc(-c2ccc(C3(c4noc(-c5cc(Cl)c[nH]c5=O)n4)CCC3)cc2)cn1 [Example 191]
8.59

Data request, read-out pIC50, for Nc1ncc(-c2ccc(C3(c4noc(-c5cnc(N6CCNCC6)cn5)n4)CCC3)cc2)cn1 [Example 124]
8.46

Data request, read-out pIC50, for Nc1cnc(-c2ccc(C3(c4noc(-c5cnn(C6COC6)c5)n4)CCC3)cc2)cn1 [Example 299]
8.54

Data request, read-out pIC50, for CN1CCN(C(=O)Cn2cc(-c3nc(C4(c5ccc(-c6cnc(N)nc6)cc5)CCC4)no3)cn2)CC1 [Example 219]
8.51

Data request, read-out pIC50, for CS(=O)(=O)CCNc1ccc(-c2nc(C3(c4ccc(-c5cnc(N)nc5)cc4)CCC3)no2)cn1 [Example 108]
8.89

Data request, read-out pIC50, for N#CCn1cc(-c2nc(C3(c4ccc(-c5cnc(N)nc5)cc4)CCC3)no2)cn1 [Example 238]
9.00

Data request, read-out pIC50, for Cn1ccc(-c2nc(C3(c4ccc(-c5cnc(N)nc5)cc4)CCC3)no2)cc1=O [Example 21]
8.51

----------
# system: recombinant human FLAP protein (Homo sapiens, UniProt P20292)
# methodSummary: FLAP binding assay (Scintillation Proximity Assay, displacement of [125I]L-691,831)
# testConditions: recombinant human FLAP membranes, [125I]L-691,831 probe; read-out: FLAP SPA IC50
measuredEndpoint: pIC50
Keep it numeric: pIC50 is minus log10 of the concentration in mol/L.

Data request, read-out pIC50, for Cc1ncccc1-c1nc(C2(c3ccc(-c4cnc(N)nc4)cc3)CCC2)no1
8.29

Data request, read-out pIC50, for Nc1ncc(-c2ccc(C3(c4noc(-c5ccc(N6CCS(=O)(=O)CC6)nc5)n4)CCC3)cc2)cn1
8.85

Data request, read-out pIC50, for CCn1cnc(-c2nc(C3(c4ccc(-c5cnc(N)nc5)cc4)CCC3)no2)c1
8.35

Data request, read-out pIC50, for CS(=O)(=O)c1ccc(-c2nc(C3(c4ccc(-c5cnc(N)nc5)cc4)CCC3)no2)cc1
8.37

----------
# system: recombinant human FLAP protein (Homo sapiens, UniProt P20292)
# Sequence (P20292 1-161): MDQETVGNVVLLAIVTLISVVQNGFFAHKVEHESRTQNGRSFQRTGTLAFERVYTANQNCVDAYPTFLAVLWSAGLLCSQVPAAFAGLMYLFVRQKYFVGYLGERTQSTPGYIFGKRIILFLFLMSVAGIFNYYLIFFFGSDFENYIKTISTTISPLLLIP
# methodSummary: FLAP binding assay (Scintillation Proximity Assay, displacement of [125I]L-691,831)
# testConditions: recombinant human FLAP membranes, [125I]L-691,831 probe; read-out: FLAP SPA IC50
measuredEndpoint: IC50 (nM)
Number only, in nM; omit the unit.

Data request, read-out IC50, for CN(CC1CCCO1)C(=O)Cn1cc(-c2nc(C3(c4ccc(-c5cnc(N)nc5)cc4)CCC3)no2)cn1 (stereo not shown) [Example 242]
5.4

Data request, read-out IC50, for Nc1ncc(-c2ccc(C3(c4noc(-c5cnn(C6CCS(=O)(=O)C6)c5)n4)CCC3)cc2)cn1 (stereo not shown) [Example 226]
1.2

Data request, read-out IC50, for Nc1ncc(-c2ccc(C3(c4noc(-c5ccc(C(=O)NCCO)nc5)n4)CCC3)cc2)cn1 [Example 77]
2.6

Data request, read-out IC50, for Cc1ccc(C(=O)Nc2nc(C3(c4ccc(-c5cnc(N)nc5)cc4)CCC3)no2)cn1 [Example 178]
61
